test_system: Proteinase-activated receptor 1 (Homo sapiens)
Sequence (P25116 whole entry): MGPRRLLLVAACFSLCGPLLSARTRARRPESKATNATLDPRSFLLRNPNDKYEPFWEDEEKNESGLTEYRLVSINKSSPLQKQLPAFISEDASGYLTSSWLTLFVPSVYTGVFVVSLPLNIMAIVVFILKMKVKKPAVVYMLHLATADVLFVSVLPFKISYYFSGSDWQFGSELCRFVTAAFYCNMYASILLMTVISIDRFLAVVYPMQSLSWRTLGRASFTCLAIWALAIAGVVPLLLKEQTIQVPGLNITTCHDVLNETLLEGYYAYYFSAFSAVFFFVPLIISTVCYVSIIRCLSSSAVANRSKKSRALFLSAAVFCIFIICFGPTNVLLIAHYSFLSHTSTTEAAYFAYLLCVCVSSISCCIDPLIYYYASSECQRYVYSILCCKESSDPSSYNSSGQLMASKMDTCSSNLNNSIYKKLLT
experimental_protocol: Inhibition of [3H]S-(p-F-Phe)-Har-L-Har-KY-NH2 binding to a thrombin receptor (PAR-1) membrane preparation.
Numbered stars: 1 amine (or outer) side, 2 acyl side, 3 side chain; on linkers, the order of the positions; unused ones are H or OH. Square brackets hold non-standard residues; d marks the D form. Peptide text beside a SMILES is read from it. * marks the point of attachment. ξ: configuration not given here. Phe(4-F)ψ(2,4-Thz) = O=C(c1csc([C@H](Cc2ccc(F)cc2)N[*:1])n1)[*:2]; Phe(4-guanidino) = N=C(N)Nc1ccc(C[C@H](N)C(=O)O)cc1; X1 = COc1ccc(C[C@H](N[*:1])c2nc(C(=O)[*:2])cs2)cc1; Phe(4-F) = N[C@@H](Cc1ccc(F)cc1)C(=O)O; Cha = N[C@@H](CC1CCCCC1)C(=O)O; X2 = O=C(/C=C/c1ccccc1)*; ξV = CC(C)C(N)C(=O)O; Sar = CNCC(=O)O
observed_property: IC50 (µM)
One number for each entry, in µM.

{"columns": ["compound", "observed_property", "readout_value"],
 "data": [
  ["COc1ccc(C[C@H](NC(=O)C(N)C(C)C)c2nc(C(=O)N[C@@H](CC3CCCCC3)C(=O)N[C@@H](CCCNC(=N)N)C(=O)N[C@@H](Cc3ccccc3)C(N)=O)cs2)cc1 (stereo partly drawn) (H-[ξV][X1][Cha]RF-NH2)", "IC50", 8.2]
]}

Batch of 5 compounds: report IC50 for each.
1. CNCC(=O)N[C@@H](Cc1ccccc1)c1nc(C(=O)N[C@@H](CC2CCCCC2)C(=O)N[C@@H](CCCNC(=N)N)C(=O)NCc2ccccc2)c(C)o1
2. CNCC(=O)N[C@@H](Cc1ccc(F)cc1)c1nc(C(=O)N[C@@H](Cc2ccccc2)C(=O)N[C@@H](CCCN=C(N)N)C(=O)NCc2ccccc2)cs1
3. NCC(=O)N[C@@H](Cc1ccc(F)cc1)c1nc(C(=O)N[C@@H](CC2CCCCC2)C(=O)N[C@@H](CCCN=C(N)N)C(N)=O)co1
4. CNCC(=O)N[C@@H](Cc1ccc(F)cc1)c1nc(C(=O)N[C@@H](CC2CCCCC2)C(=O)N[C@@H](CCCN=C(N)N)C(=O)NCc2ccccc2)co1
5. Cc1oc([C@H](Cc2ccc(F)cc2)NC(=O)C(N)CN)nc1C(=O)N[C@@H](CC1CCCCC1)C(=O)N[C@@H](CCCN=C(N)N)C(=O)NCc1ccccc1 (stereo partly drawn)

1: 60; 2: 24; 3: 6.2; 4: 1.6; 5: 53

Batch of 8 compounds: report IC50 for each.
1. NCC(=O)N[C@@H](Cc1ccc(F)cc1)c1nc(C(=O)N[C@@H](CC2CCCCC2)C(=O)N[C@@H](CCCN=C(N)N)C(=O)NCc2ccccc2)co1
2. CC(C)C[C@H](NC(=O)[C@H](Cc1ccc(NC(=N)N)cc1)NC(=O)[C@H](Cc1ccc(F)cc1)NC(=O)/C=C/c1ccccc1)C(=O)N[C@@H](CCCN=C(N)N)C(=O)N[C@@H](CCCN=C(N)N)C(N)=O (X2-[Phe(4-F)][Phe(4-guanidino)]LRR-NH2)
3. CNCC(=O)N[C@@H](Cc1ccc(F)cc1)c1nc(C(=O)N[C@@H](CC2CCCCC2)C(=O)N[C@@H](CCCN=C(N)N)C(=O)NCCc2ccccc2)cs1
4. NC(=O)[C@H](Cc1ccccc1)NC(=O)[C@H](CCCN=C(N)N)NC(=O)[C@H](CC1CCCCC1)NC(=O)c1csc([C@@H](N)Cc2ccc(F)cc2)n1
5. CC[C@H](C)[C@H](N)C(=O)N[C@@H](Cc1ccc(F)cc1)c1nc(C(=O)N[C@@H](CC2CCCCC2)C(=O)N[C@@H](CCCN=C(N)N)C(=O)N[C@@H](Cc2ccccc2)C(N)=O)cs1 (H-I[Phe(4-F)ψ(2,4-Thz)][Cha]RF-NH2)
6. CNCC(=O)N[C@@H](Cc1ccc(F)cc1)c1nc(C(=O)N[C@@H](CC2CCCCC2)C(=O)N[C@@H](CCCNC(=N)N)C(=O)NCC(C)c2ccccc2)cs1 (stereo partly drawn)
7. CNCC(=O)N[C@@H](Cc1ccc(F)cc1)c1nc(C(=O)N[C@@H](CC2CCCCC2)C(=O)N[C@@H](CCCNC(=N)N)C(=O)NCc2ccccc2)c(C)o1
8. CNCC(=O)N[C@@H](Cc1ccc(F)cc1)c1nc(C(=O)N[C@@H](CC2CCCCC2)C(=O)N[C@@H](CCCN=C(N)N)C(=O)N[C@@H](Cc2ccc(O)cc2)C(N)=O)cs1 (H-[Sar][Phe(4-F)ψ(2,4-Thz)][Cha]RY-NH2)

1: 5.4; 2: 0.0075; 3: 5.6; 4: 8; 5: 3.9; 6: 24; 7: 5; 8: 4.1

# IC50 lookup, item `CC(C)C[C@H](NC(=O)[C@H](CC(C)C)NC(=O)[C@H](Cc1ccccc1)NC(=O)[C@@H](N)CO)C(=O)N[C@@H](CCCN=C(N)N)C(=O)N[C@@H](CC(N)=O)C(N)=O` 73
